System: 5-HT4 receptor (Rattus norvegicus)
Test: Agonistic activity against 5-hydroxytryptamine 4 receptor
Record class 1 whenever Intrinsic activity is at 0.4 or higher; record class 0 when lower.

| SUBSTANCE SMILES | DISCRETE LABEL |
| --- | --- |
| CC(C)n1c(=O)n(C(=O)NCCCN2CCN(C)CC2)c2ccccc21 | class 0 |
| C=CCn1c(=O)n(C(=O)NCCN2CCN(C)CC2)c2ccccc21 | class 1 |
| C=CC[N+]1(C)CCN(CCNC(=O)n2c(=O)n(C(C)C)c3ccccc32)CC1 | class 0 |
| CCCC[N+]1(C)CCN(CCNC(=O)n2c(=O)n(C(C)C)c3ccccc32)CC1 | class 1 |
| CC(C)n1c(=O)n(C(=O)NCCN2CCN(C)CC2)c2cc(F)c(N)cc21 | class 0 |
| CN1CCN(CCNC(=O)n2c(=O)[nH]c3ccccc32)CC1 | class 0 |
| CCN1CCN(CCNC(=O)n2c(=O)n(C(C)C)c3ccccc32)CC1 | class 1 |
| CN1CCN(CCNC(=O)n2c(=O)n(Cc3ccccc3)c3ccccc32)CC1 | class 0 |
| CCn1c(=O)n(C(=O)NCCN2CCN(C)CC2)c2ccccc21 | class 0 |
